FYI, the data here is from BindingDB's records for doi:10.1021/jm0104567.

Experiment: In vitro inhibition of acid induced swelling in rat platelets by 50% as a measure of NHE-1 inhibition
parameter measured: IC50 (nM)

Illustrative cases are given below, each with its answer.
INSERT INTO results (compound, parameter_measured, units_text, readout_value) VALUES
  ('Cc1ccnc2c1C(=NN=C(N)N)CC(c1ccccc1Cl)C2 (centres undefined)', 'IC50', 'nM', 40),
  ('Cc1ccccc1C1CC(=NN=C(N)N)c2c(C)c[nH]c2C1 (centres undefined)', 'IC50', 'nM', 34),
  ('Cc1ccnc2c1C(=NN=C(N)N)CC(c1cc(F)ccc1F)C2 (centres undefined)', 'IC50', 'nM', 39),
  ('Cc1ccnc2c1C(=NN=C(N)N)CC(c1cc(Cl)ccc1Cl)C2 (centres undefined)', 'IC50', 'nM', 58),
  ('NC(N)=NN=c1cc(-c2ccccc2)oc2ccccc12', 'IC50', 'nM', 6400),
  ('COc1ccnc2c1C(=NN=C(N)N)CC(c1ccccc1Cl)C2 (centres undefined)', 'IC50', 'nM', 50),
  ('Cc1ccc2c(n1)CC(c1ccccc1)CC2=NN=C(N)N (centres undefined)', 'IC50', 'nM', 2800),
  ('COc1ccccc1C1CC(=NN=C(N)N)c2c(C)ccnc2C1 (centres undefined)', 'IC50', 'nM', 100),
  ('Cc1ccnc2c1C(=NN=C(N)N)CC(c1cccc(Cl)c1)C2 (centres undefined)', 'IC50', 'nM', 61),
  ('Cc1ccnc2c1C(=NN=C(N)N)C[C@H](c1ccccc1Cl)C2', 'IC50', 'nM', 20);

[1] Cc1ccnc2c1C(=NN=C(N)N)CC(c1cccc(Cl)c1Cl)C2 (centres undefined)
[2] NC(N)=NN=C1CC(c2ccccc2)Cc2ncccc21 (centres undefined)
(Q) Which record would sort first by descending IC50, 1 or 2 ? Give the chosen item's label as your response.
(A) 2

[1] COc1cccc(C=NNC(=N)N)c1OCc1ccccc1
[2] Cc1ccnc2c1C(=NN=C(N)N)C[C@@H](c1cc(Cl)sc1Cl)C2
(Q) Please indicate which entry, 1 or 2 , has the lower recorded IC50 value. Give the chosen item's label as your response.
(A) 2

---

Experiment: In vitro inhibition of acid induced swelling in rat platelets by 50% as a measure of NHE-1 inhibition
parameter measured: IC50 (µM)

INSERT INTO assay_data (compound, readout_value) VALUES
  ('Cc1ccnc2c1C(=NN=C(N)N)CC(c1ccco1)C2 (centres undefined)', 0.11),
  ('Cc1ccnc2c1C(=NN=C(N)N)CC(c1ccc(Cl)cc1)C2 (centres undefined)', 0.55),
  ('Cc1ccccc1C1CC(=NN=C(N)N)c2c(C)ccnc2C1 (centres undefined)', 0.057),
  ('Cc1ccnc2c1C(=NN=C(N)N)C[C@@H](c1ccccc1Cl)C2', 0.7),
  ('Cc1coc2c1C(=NN=C(N)N)CC(c1ccccc1Cl)C2 (centres undefined)', 0.082),
  ('Cc1ccnc2c1C(=NN=C(N)N)CC(c1sc(Cl)cc1Cl)C2 (centres undefined)', 0.049),
  ('Cc1n[nH]c2c1C(=NN=C(N)N)CC(c1ccccc1Cl)C2 (centres undefined)', 0.055),
  ('Cc1ncnc2c1C(=NN=C(N)N)CC(c1ccccc1Cl)C2 (centres undefined)', 0.24),
  ('Cc1cc(C)c2c(n1)CC(c1ccccc1)CC2=NN=C(N)N (centres undefined)', 0.18),
  ('Cc1ccnc2c1C(=NN=C(N)N)C[C@H](c1cc(Cl)sc1Cl)C2', 0.017);

[1] Cc1ccc(F)cc1[C@H]1CC(=NN=C(N)N)c2c(C)ccnc2C1
[2] Cc1cnnc2c1C(=NN=C(N)N)CC(c1ccccc1Cl)C2 (centres undefined)
(Q) Please indicate which entry, 1 or 2 , has the lower recorded IC50 value. Give the chosen item's label as your response.
(A) 1

[a] NC(N)=NN=C1CC(c2ccccc2)Cc2[nH]ccc21 (centres undefined)
[b] Cc1ccc(F)cc1C1CC(=NN=C(N)N)c2c(C)ccnc2C1 (centres undefined)
[c] Cc1ccnc2c1C(=NN=C(N)N)CC(c1ccccc1Br)C2 (centres undefined)
(Q) Arrange the 3 compounds from largest to smallest IC50. Please write the labels in the order that was asked for.
(A) a, c, b
(a: 3.5 µM, c: 0.056 µM, b: 0.037 µM)

[P] NC(N)=NN=C1CC(c2ccccc2)Oc2ccccc21 (centres undefined)
[Q] Cc1ccnc2c1C(=NN=C(N)N)CC(c1ccsc1)C2 (centres undefined)
[R] CC(C)c1ccc(C(=O)NC(=N)N)cc1S(C)(=O)=O
(Q) Exam item: list the entries in increasing order of IC50. Please write the labels in the order that was asked for.
(A) Q, R, P
(Q: 0.03 µM, R: 0.075 µM, P: 3.3 µM)

[I] Cc1cccc2oc(-c3ccccc3Cl)cc(=NN=C(N)N)c12
[II] Cc1ccnc2c1C(=NN=C(N)N)CC(c1cccs1)C2 (centres undefined)
(Q) Which record would sort first by descending IC50, I or II ? Give the chosen item's label as your response.
(A) I
(I: 0.36 µM, II: 0.047 µM)

[P] Cc1cccc2c1C(=NN=C(N)N)CC(c1ccccc1Cl)O2 (centres undefined)
[Q] Cc1ccnc2c1C(=NN=C(N)N)CC(c1ccccc1)C2 (centres undefined)
(Q) Which record would sort first by descending IC50, P or Q ? Give the chosen item's label as your response.
(A) P

[A] Cc1ccnc2c1C(=NN=C(N)N)CC(c1ccc(Cl)cc1Cl)C2 (centres undefined)
[B] Cc1ccnc2c1C(=NN=C(N)N)CC(c1ccsc1Cl)C2 (centres undefined)
(Q) Which record would sort first by descending IC50, A or B ? Give the chosen item's label as your response.
(A) A
